test system: Staphylococcus aureus; assay: Minimum inhibition concentration in vitro determined against Staphylococcus aureus ATCC 6538P; assay type: functional
Give MIC for every item shown.
Write the number in µg/mL without appending the unit.

Which MIC is reported for this molecule? "O=C(O)c1cn(-c2ccccc2)c2cc(N3CCNCC3)c(F)cc2c1=O"
0.39

Try this molecule too: "Cc1ccccc1-n1cc(C(=O)O)c(=O)c2cc(F)c(N3CCN(C)CC3)cc21"
3.1

Ok, now "CN(C)C1CCN(c2cc3c(cc2F)c(=O)c(C(=O)O)cn3-c2ccc(F)cc2)CC1"
0.39

Entry "CC(=O)N1CCN(c2cc3c(cc2F)c(=O)c(C(=O)O)cn3-c2ccc(F)cc2)CC1" please
0.2

Now the same for "CN1CCN(c2cc3c(cc2F)c(=O)c(C(=O)O)cn3-c2ccc3c(c2)OCO3)CC1"
0.78

Do the same for "O=C(O)c1cn(-c2ccc(F)cc2)c2cc(N3CCOCC3)c(F)cc2c1=O" please
0.1

Request: "CN1CCN(c2cc3c(cc2F)c(=O)c(C(=O)O)cn3-c2ccc(F)cc2F)CC1"
0.1

And the next one, "CN1CCN(c2cc3c(cc2F)c(=O)c(C(=O)O)cn3-c2ccccc2F)CC1" ?
1.56

Same question, NC1CCN(c2cc3c(cc2F)c(=O)c(C(=O)O)cn3-c2ccc(F)cc2)C1 (centres undefined) this time
0.05

Input CN(C)C1CCN(c2cc3c(cc2F)c(=O)c(C(=O)O)cn3-c2ccc(F)cc2)C1 (centres undefined)
0.39

Another: "O=C(O)c1cn(-c2ccc(F)cc2)c2cc(N3CCC(O)CC3)c(F)cc2c1=O"
0.1

// next record "COc1ccc(-n2cc(C(=O)O)c(=O)c3cc(F)c(N4CCN(C)CC4)cc32)cc1"
12.5

Param item: "CC(C)N(C)c1cc2c(cc1F)c(=O)c(C(=O)O)cn2-c1ccc(F)cc1"
0.78

Moving on to the next molecule: "Cc1ccc(-n2cc(C(=O)O)c(=O)c3cc(F)c(N4CCN(C)CC4)cc32)cc1"
1.56

Subsequent entry: "O=C(O)c1cn(-c2ccc(F)cc2)c2cc(N3CCCNCC3)c(F)cc2c1=O"
0.78

// same read-out, input: "CN1CCN(c2cc3c(cc2F)c(=O)c(C(=O)O)cn3-c2ccc(F)cc2)CC1=O"
0.1

Please do the same for "CN1CCN(c2cc3c(cc2F)c(=O)c(C(=O)O)cn3-c2ccc(Cl)cc2)CC1" as well.
1.56

Now this one: "O=C(O)c1cn(-c2ccc(F)cc2)c2cc(N3CCCC3)c(F)cc2c1=O"
0.1

Please do the same for "O=C(O)c1cn(-c2ccc(F)cc2)c2cc(N3CCCCC3)c(F)cc2c1=O" as well.
0.2

"CN1CCN(c2cc3c(cc2F)c(=O)c(C(=O)O)cn3-c2cccc(F)c2)CC1" , same question.
12.5

// next record "CN1CCN(c2cc3c(cc2F)c(=O)c(C(=O)O)cn3-c2ccc(F)cc2)CC1"
0.2

Ok, now "CCC(=O)N1CCN(c2cc3c(cc2F)c(=O)c(C(=O)O)cn3-c2ccc(F)cc2)CC1"
0.2

Now try "CCCCN1CCN(c2cc3c(cc2F)c(=O)c(C(=O)O)cn3-c2ccc(F)cc2)CC1" .
0.78

Follow-up entry: "O=C(O)c1cn(-c2ccc(F)cc2)c2cc(N3CCSCC3)c(F)cc2c1=O"
0.05

// same read-out, input: "CN1CCN(c2cc3c(cc2F)c(=O)c(C(=O)O)cn3-c2ccc(O)cc2)CC1"
0.05

Now the same for "CCn1cc(C(=O)O)c(=O)c2cc(F)c(N3CCNCC3)cc21"
0.78

And for "O=C(O)c1cn(-c2ccc(F)cc2)c2cc(N3CCNCC3)c(F)cc2c1=O" ?
0.2

Query CNC1CCN(c2cc3c(cc2F)c(=O)c(C(=O)O)cn3-c2ccc(F)cc2)C1 (centres undefined) next
3.1

Would you mind doing "CN1CCN(c2cc3c(cc2F)c(=O)c(C(=O)O)cn3-c2ccc(Br)cc2)CC1" as well?
3.1

Then what about the molecule CC(=O)NC1CCN(c2cc3c(cc2F)c(=O)c(C(=O)O)cn3-c2ccc(F)cc2)C1 (centres undefined) ?
0.1

Next molecule: "CN1CCN(c2cc3c(cc2F)c(=O)c(C(=O)O)cn3-c2ccccc2)CC1"
0.78

Entry to check: "O=C1CN(c2cc3c(cc2F)c(=O)c(C(=O)O)cn3-c2ccc(F)cc2)CCN1"
0.2
